- TARGET: T1, TR66 antibody (CD3ε specific antibody, clone TR66)
- T1 construct: Whole antibody
- PROTOCOL DETAILS: apparent KD, peptide ELISA, biotinylated peptide on streptavidin plate, TR66 titrated, two-site saturation fit
pKd: −log10 of the molar value. Positions of bridges follow the written chain, without caps; N, C: chain ends. No end group written: not given here. *: point of attachment. Biotin = O=C1N[C@H]2[C@H](CS[C@H]2CCCCC(=O)*)N1
Entries and their pKd values follow.

| BINDER | pKd |
| --- | --- |
| ACTRPGDPACGGGSK(Biotin) (disulfide 2-10 (inferred)) [aCD3-04-008 (ACTRPGDPAC-GGGS-K(Bio))] | 6.79 |
| ACTRPDDPWCGGGSK(Biotin) (disulfide 2-10 (inferred)) [aCD3-04-014 (ACTRPDDPWC-GGGS-K(Bio))] | 6.95 |
| ACTRPDDPQCGGGSK(Biotin) (disulfide 2-10 (inferred)) [aCD3-04-002 (ACTRPDDPQC-GGGS-K(Bio))] | 7.11 |
